# Test system: SW48 (Colorectal Carcinoma)
# TEST_SUMMARY: combination Emax (second highest fraction inhibited in the dose matrix, 72 h); higher = more inhibition; extreme values may be limits of the assay
MEASURED_ATTRIBUTE: combination Emax
Note: the reply should be a number with no unit written.

Query: Let me know recorded combination Emax for COc1cccc(OCCCN)c1-c1cc(Nc2cnc(C#N)cn2)n[nH]1 [Prexasertib] + CN(C)CCCOc1ccc(-c2ccc3ncc4c(c3c2)n(C2CCOCC2)c(=O)n4C)cn1 [AZD0156] (first compound max 1 µM, 7x7, partner max 1 µM) , thanks.
Response: 0.767

Query: Provide one value: measured combination Emax of Cc1c2c(nn1C)CSCc1cc(n(C)n1)CSc1cc(c3ccccc3c1)OCCCc1c(C(=O)O)n(C)c3c-2c(Cl)ccc13 [AZD5991] + CC1(C)CCC(CN2CCN(c3ccc(C(=O)NS(=O)(=O)c4ccc(NCC5CCOCC5)c([N+](=O)[O-])c4)c(Oc4cnc5[nH]ccc5c4)c3)CC2)=C(c2ccc(Cl)cc2)C1 [Venetoclax] (first compound max 1 µM, 7x7, partner max 1 µM)
Response: 0.339

Query: Quick one: give measured combination Emax for NC1(C(=O)N[C@@H](CCO)c2ccc(Cl)cc2)CCN(c2ncnc3[nH]ccc23)CC1 [Capivasertib] + CCN(CCO)CCCOc1ccc2c(Nc3cc(CC(=O)Nc4cccc(F)c4)[nH]n3)ncnc2c1 [AZD2811] (first compound max 10 µM, 7x7, partner max 1 µM)
Response: 0.983

----------
# System: DOK (Oral Cavity Carcinoma)
# TEST_SUMMARY: combination Emax (second highest fraction inhibited in the dose matrix, 72 h); higher = more inhibition; extreme values may be limits of the assay
Assignment: determine reported combination Emax for the given molecules.
Kindly provide the number alone.

Query: Return combination Emax for the following molecule: Cc1cc2ncnn2cc1Nc1ncc2c(n1)n(C1CCOCC1)c(=O)n2C [AZD7648] + CCN(CCO)CCCOc1ccc2c(Nc3cc(CC(=O)Nc4cccc(F)c4)[nH]n3)ncnc2c1 [AZD2811] (first compound max 10 µM, 7x7, partner max 1 µM)
Response: 0.47

Query: Give combination Emax for COc1cccc(OCCCN)c1-c1cc(Nc2cnc(C#N)cn2)n[nH]1 [Prexasertib] + CN(C)CCCOc1ccc(-c2ccc3ncc4c(c3c2)n(C2CCOCC2)c(=O)n4C)cn1 [AZD0156] (first compound max 1 µM, 7x7, partner max 1 µM)
Response: 0.348

Query: // fetch combination Emax given entry COc1cccc(OCCCN)c1-c1cc(Nc2cnc(C#N)cn2)n[nH]1 [Prexasertib] + C=CCn1c(=O)c2cnc(Nc3ccc(N4CCN(C)CC4)cc3)nc2n1-c1cccc(C(C)(C)O)n1 [AZD1775] (first compound max 1 µM, partner max 1 µM)
Response: 0.685

Query: Return reported combination Emax. Input molecule: CC1(C)CCC(CN2CCN(c3ccc(C(=O)NS(=O)(=O)c4ccc(NCC5CCOCC5)c([N+](=O)[O-])c4)c(Oc4cnc5[nH]ccc5c4)c3)CC2)=C(c2ccc(Cl)cc2)C1 [Venetoclax] + C[C@@H](Nc1cc(F)cc(F)c1)c1cc(C(=O)N(C)C)cc2c(=O)cc(N3CCOCC3)oc12 [AZD8186] (first compound max 1 µM, 7x7, partner max 3 µM)
Response: 0.188

----------
Provide the recorded combination Emax for the entries that follow.
# System: SK-MEL-1 (Melanoma)
# TEST_SUMMARY: combination Emax (second highest fraction inhibited in the dose matrix, 72 h); higher = more inhibition; extreme values may be limits of the assay
Give the figure by itself; no unit, no explanation.

Query: Using known records, supply combination Emax for CN(CCO)CC[C@H](CSc1ccccc1)Nc1ccc(S(=O)(=O)NC(=O)c2ccc(N3CCC([C@@H](O)c4ccccc4-c4ccc(Cl)cc4)CC3)cc2)cc1S(=O)(=O)C(F)(F)F [AZD4320] + CC(=O)O[C@H]1C(=O)[C@@]2(C)[C@H]([C@H](OC(=O)c3ccccc3)[C@]3(O)C[C@H](OC(=O)[C@H](O)[C@@H](NC(=O)c4ccccc4)c4ccccc4)C(C)=C1C3(C)C)[C@]1(OC(C)=O)CO[C@@H]1C[C@@H]2O [Paclitaxel] (first compound max 1 µM, 7x7, partner max 3 µM)
Response: 0.623

Query: Quickly give me recorded combination Emax for C=CCn1c(=O)c2cnc(Nc3ccc(N4CCN(C)CC4)cc3)nc2n1-c1cccc(C(C)(C)O)n1 [AZD1775] + C1CN(CCC1(C(=O)N[C@@H](CCO)C2=CC=C(C=C2)Cl)N)C3=NC=NC4=C3C=CN4 [Capivasertib] (first compound max 3 µM, partner max 3 µM)
Response: 0.336

Query: // fetch combination Emax given entry COc1nnc2ccc(N3CCC(c4ccc(OCCN5CCN(C)C(=O)[C@H]5C)cc4)CC3)nn12 [AZD5153] + C[C@@H]1COCCN1C2=NC(=NC(=C2)C3(CC3)[S@](=N)(=O)C)C4=C5C=CNC5=NC=C4 [AZD6738] (first compound max 1 µM, 7x7, partner max 10 µM)
Response: 0.689
